Collected binding vs Reference Sequence (=100%) values appear next to each entry.
target: T1, purified interference factor(s) from serum of Donor A; assay: Biacore, immobilized interference factor
T1 construct: text names Donors 8, 19 and 30
Provide only the numeric value, understood in %.

[[record]]
binder = "SEQ ID NO 67 (VHH, R83K) VHH: EVQLVESGGGLVQPGGSLRLSCAASRSIGRLDRMGWYRHRPGEPRELVATITGGSSINYGDSVKGRFTISIDNSKNTVYLQMNSLKPEDTAVYYCNFNKYVTSRDTWGQGTLVTVSS"
quantitative_result = 102

[[record]]
binder = "SEQ ID NO 66 (VHH, L11S) VHH: EVQLVESGGGSVQPGGSLRLSCAASRSIGRLDRMGWYRHRPGEPRELVATITGGSSINYGDSVKGRFTISIDNSKNTVYLQMNSLRPEDTAVYYCNFNKYVTSRDTWGQGTLVTVSS"
quantitative_result = 81


Note: attention shifts to another entry.
Tell me the measured binding vs Reference Sequence (=100%) of SEQ ID NO 43 (bispecific antibody, Nanobody construct; C-terminal: A) DVQLVESGGGLVQPGGSLRLSCAASGFILDYYAIGWFRQAPGKEREGVLCIDASDDITYYADSVKGRFTISRDNSKNTVYLQMNSLRPEDTAVYYCATPIGLSSSCLLEYDYDYWGQGTLVTVSSGGGGSGGGSEVQLLESGGGLVQPGGSLRLSCAASGFTFRSFGMSWVRQAPGKGPEWVSSISGSGSDTLYADSVKGRFTISRDNSKNTLYLQMNSLRPEDTAVYYCTIGGSLSRSSQGTLVTVSSA , please. 3

These data points were gathered from patent US20140205597A1.
